Molecular target: Neu1 sialidase (Mus musculus)
Assay: LPS-induced Neu1 sialidase activity in live BMA macrophage cells (4-MUNANA)
Conditions: LPS-induced Neu1 sialidase activity, live BMA macrophage cells
Reported endpoint: IC50 (µM)

compound="CCC(CC)C(=O)NC[C@H](O)[C@H](O)C1OC(C(=O)O)=CC(O)[C@H]1NC(C)=O (stereo partly shown) [B8]" unit_name=µM meas_value=1050
compound="CCCC(=O)NC[C@H](O)[C@H](O)C1OC(C(=O)O)=CC(O)[C@H]1NC(C)=O (stereo partly shown) [B1]" unit_name=µM meas_value=0.0138
compound="CC(=O)N[C@@H]1C(O)C=C(C(=O)O)OC1[C@@H](O)[C@@H](O)CNC(=O)C1CCCCC1 (stereo partly shown) [B3]" unit_name=µM meas_value=0.0039
compound="CC(=O)N[C@@H]1C(O)C=C(C(=O)O)OC1[C@@H](O)[C@@H](O)CNC(=O)C1CC1 (stereo partly shown) [B9]" unit_name=µM meas_value=1120
compound="CCCCC(=O)NC[C@H](O)[C@H](O)C1OC(C(=O)O)=CC(O)[C@H]1NC(C)=O (stereo partly shown) [B5]" unit_name=µM meas_value=1.45
compound="CCC(C)C(=O)NC[C@H](O)[C@H](O)C1OC(C(=O)O)=CC(O)[C@H]1NC(C)=O (stereo partly shown) [B2]" unit_name=µM meas_value=29.7
compound="CC(=O)N[C@@H]1C(O)C=C(C(=O)O)OC1[C@@H](O)[C@@H](O)CNC(=O)C(C)C (stereo partly shown) [B7]" unit_name=µM meas_value=683
compound="CC(=O)N[C@@H]1C(O)C=C(C(=O)O)OC1[C@@H](O)[C@@H](O)CNC(=O)C(C)(C)C (stereo partly shown) [B10]" unit_name=µM meas_value=411
compound="CC(=O)N[C@@H]1C(O)C=C(C(=O)O)OC1[C@@H](O)[C@@H](O)CNC(=O)C1CCCC1 (stereo partly shown) [B6]" unit_name=µM meas_value=76.6
compound="CC(=O)NC[C@H](O)[C@H](O)C1OC(C(=O)O)=CC(O)[C@H]1NC(C)=O (stereo partly shown) [B4]" unit_name=µM meas_value=2.98
